biological target: T1, recombinant human GM-CSF protein (human, UniProt P04141 18-144); test: SPR Biacore T200, antibody captured by anti-human Fc, GM-CSF as analyte, 25 C, 1:1 model
T1 construct: Bought recombinant protein (Genscript); also called biotinylated human GM-CSF protein
T1 sequence (P04141 18-144 limits assumed): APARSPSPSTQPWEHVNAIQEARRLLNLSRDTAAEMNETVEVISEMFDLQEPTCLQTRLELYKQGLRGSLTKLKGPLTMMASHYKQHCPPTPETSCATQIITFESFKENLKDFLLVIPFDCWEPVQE
Test readout: kon
Kindly format the answer as number then unit.

Binder	kon
Hu23F4-5 (antibody, V domains shown, Humanized) VH: EVQLVQSGAEVKKPGATVKISCKVSGYTFTSHYLHWVQQAPGKGLEWMGWIFPGDDKTKYNEKFKGRVTITSDTSTDTAYMELSSLRSEDTAVYYCARGTKYLNWNFDVWGQGTTVTVSS VL: DIQLTQSPSFLSASVGDRVTITCKANQNVGTTLAWYQQKPGKAPKLLIYSASYRYSGVPSRFSGSGSGTEFTLTISSLQPEDFATYYCHQYTTYPLTFGGGTKVEIK	1.19e+06 M⁻¹ s⁻¹

## Task Please report the recorded kon for Hu23F4-13 (antibody, V domains shown, Humanized) VH: EVQLVQSGAEVKKPGATVKISCKVSGYTFTSHYLHWVQQAPGKGLEWIGWIFPGDDKTKYNEKFKGRATLTSDTSTDTAYMELSSLRSEDTAVYYCARGTKYLNWNFDVWGQGTTVTVSS VL: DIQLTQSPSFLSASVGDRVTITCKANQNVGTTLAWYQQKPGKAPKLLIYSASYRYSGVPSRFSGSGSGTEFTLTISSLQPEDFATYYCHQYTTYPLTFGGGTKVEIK .
## Result 1.28e+06 M⁻¹ s⁻¹
